study target: VMAT2 (Rattus norvegicus (Rat), UniProt Q01827)
Sequence (Q01827 whole entry): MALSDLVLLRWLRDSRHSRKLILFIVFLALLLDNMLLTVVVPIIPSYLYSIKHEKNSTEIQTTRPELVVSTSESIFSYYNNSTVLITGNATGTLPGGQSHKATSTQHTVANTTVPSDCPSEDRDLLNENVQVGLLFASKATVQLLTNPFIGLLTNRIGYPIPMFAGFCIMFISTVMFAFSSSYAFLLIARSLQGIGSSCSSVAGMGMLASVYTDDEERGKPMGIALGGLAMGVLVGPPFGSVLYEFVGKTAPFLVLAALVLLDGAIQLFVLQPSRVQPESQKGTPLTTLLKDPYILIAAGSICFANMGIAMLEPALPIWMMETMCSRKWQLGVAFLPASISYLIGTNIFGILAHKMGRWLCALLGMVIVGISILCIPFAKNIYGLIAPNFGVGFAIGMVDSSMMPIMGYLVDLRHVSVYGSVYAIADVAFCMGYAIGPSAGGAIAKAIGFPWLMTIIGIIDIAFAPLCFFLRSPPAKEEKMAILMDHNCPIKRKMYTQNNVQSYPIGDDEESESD
pIC50: −log10 of the molar value.
test readout: pIC50

molecule="CCCOc1cc2c(cc1OCC)CCN1CC(CC(C)C)C(O)CC21 (stereo not shown) [Comparative Example 41, reference compound]" data_value=6.55

* * *

assay comment: Pharmacokinetic / bioavailability test in SD rats (gavage 5 μmol/kg, intravenous 2 μmol/kg)
experimental context: male, rat, plasma, 2 umol/kg
test readout: half-life (min)

compound_string=COc1cc2c(cc1OC)[C@H]1C[C@@H](OC(=O)[C@@H](N)C(C)C)[C@H](CC(C)C)CN1CC2 test_readout=half-life data_value=100

Attribution: patent US12565495B2
